// provenance: ChEMBL document CHEMBL3621061

assay.name: Displacement of [3H]histamine from monkey recombinant histamine H4 receptor
Parameters: species or system Macaca mulatta
measured.metric: pKi
Answers are plain numbers, as −log10 of the molar value.

Query :: What does the record list as pKi for CC(C)c1cc(N2CC[C@@H](N)C2)nc(N)n1 ?
Result :: 7.60

---

assay.name: Displacement of [3H]histamine from dog recombinant histamine H4 receptor
Set-up: species or system Canis lupus familiaris
pKi: −log10 of the molar value.
measured.metric: pKi

Query :: What does the record list as pKi for CC(C)c1cc(N2CC[C@@H](N)C2)nc(N)n1 [JNJ-39758979] ?
Result :: < 5.00
